Taken from patent US8921410B2.

Biological target: rat α4β2 nAChR subtype (Rattus norvegicus (Rat), UniProt P09483+P12390)
Sequence (P09483 31-630): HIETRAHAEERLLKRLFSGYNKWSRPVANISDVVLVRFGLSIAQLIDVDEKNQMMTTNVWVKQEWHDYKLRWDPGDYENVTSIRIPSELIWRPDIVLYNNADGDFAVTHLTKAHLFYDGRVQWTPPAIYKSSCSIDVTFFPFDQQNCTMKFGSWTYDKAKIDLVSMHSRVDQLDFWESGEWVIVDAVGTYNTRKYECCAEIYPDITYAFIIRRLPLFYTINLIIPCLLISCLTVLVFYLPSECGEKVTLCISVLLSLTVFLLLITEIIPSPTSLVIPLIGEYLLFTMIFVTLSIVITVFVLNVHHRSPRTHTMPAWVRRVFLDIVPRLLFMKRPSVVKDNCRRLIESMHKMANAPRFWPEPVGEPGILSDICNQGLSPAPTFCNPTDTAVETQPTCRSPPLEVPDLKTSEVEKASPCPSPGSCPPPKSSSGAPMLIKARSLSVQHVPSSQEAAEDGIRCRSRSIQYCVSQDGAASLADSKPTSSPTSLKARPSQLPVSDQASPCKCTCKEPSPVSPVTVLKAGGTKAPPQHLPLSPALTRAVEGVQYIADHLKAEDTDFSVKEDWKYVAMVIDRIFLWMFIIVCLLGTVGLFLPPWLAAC
Sequence (P12390 25-500): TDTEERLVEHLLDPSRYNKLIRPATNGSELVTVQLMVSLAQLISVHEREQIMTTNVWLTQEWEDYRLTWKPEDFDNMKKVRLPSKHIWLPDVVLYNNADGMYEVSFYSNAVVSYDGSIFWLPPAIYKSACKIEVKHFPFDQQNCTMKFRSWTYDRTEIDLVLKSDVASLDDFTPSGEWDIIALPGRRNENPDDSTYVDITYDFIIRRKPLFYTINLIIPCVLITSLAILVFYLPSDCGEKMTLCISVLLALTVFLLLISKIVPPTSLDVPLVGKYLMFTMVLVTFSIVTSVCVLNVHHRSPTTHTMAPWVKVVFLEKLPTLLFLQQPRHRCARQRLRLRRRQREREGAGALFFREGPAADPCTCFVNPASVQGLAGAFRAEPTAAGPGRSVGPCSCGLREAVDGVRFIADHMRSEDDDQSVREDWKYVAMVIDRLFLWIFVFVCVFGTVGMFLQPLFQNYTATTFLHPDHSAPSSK
Test: Radioligand ([3H]nicotine) binding at α4β2 nAChR, rat cortex membranes
Conditions: [3H]nicotine 5 nM, rat cortex membranes
Measured parameter: Ki

[
  {
    "Compound": "O=C(c1ccc(F)o1)N1CC2CNCC2C1 (stereo not drawn)",
    "Observed measurement": "8.3 nM"
  },
  {
    "Compound": "O=C(c1occc1F)N1CC2CNCC(C2)C1",
    "Observed measurement": "110 nM"
  },
  {
    "Compound": "COc1cc(C(=O)N2CC3CNCC3C2)on1 (stereo not drawn)",
    "Observed measurement": "19 nM"
  }
]

###

Overview of reported pKi across a group of molecules:
Molecular target: rat α4β2 nAChR subtype (Rattus norvegicus (Rat), UniProt P09483+P12390)
Assay: Radioligand ([3H]nicotine) binding at α4β2 nAChR, rat cortex membranes
Experimental: Preparation of Membranes from Rat Cortex: […] On the day of the assay, the frozen membranes were thawed and spun at 48,000×g for 20 min. […] Protein concentrations were determined using a Pierce BCA Protein Assay Kit, with bovine serum albumin as the standard (Pierce Chemical Company, Rockford, Ill.). […] Data were expressed as disintegrations per minute (DPMs). […]
pKi: −log10 of the molar value.

[
  {
    "Molecule": "O=C(c1cc(Cl)co1)N1CC2CNCC(C2)C1",
    "pKi": 7.89
  },
  {
    "Molecule": "O=C(c1cc(C2CC2)on1)N1CC2CNCC(C2)C1",
    "pKi": 7.60
  },
  {
    "Molecule": "Cc1ccc(C(=O)N2CC3CNCC3C2)o1 (stereo not drawn)",
    "pKi": 6.89
  }
]
